Provenance of the data: the supplement of paper PMC11061612

Would you kindly list Bliss excess for each of these molecules?
Test system: BPH-1 (Non-Cancerous);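 note: after 72 h of two-drug dosing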
ASSAY: Bliss excess, mean over the matrix (fraction); higher = more synergy
Please give only the number in your answer, with no unit.

QUERY: State, in one line, measured Bliss excess of COc1nnc2ccc(N3CCC(c4ccc(OCCN5CCN(C)C(=O)[C@H]5C)cc4)CC3)nn12 [AZD5153] + CCN(CCO)CCCOc1ccc2c(Nc3cc(CC(=O)Nc4cccc(F)c4)[nH]n3)ncnc2c1 [AZD2811] (first compound max 1 µM, 7x7, partner max 1 µM)
RESULT: -0.0252

QUERY: State, in one line, measured Bliss excess of Cc1c2c(nn1C)CSCc1cc(n(C)n1)CSc1cc(c3ccccc3c1)OCCCc1c(C(=O)O)n(C)c3c-2c(Cl)ccc13 [AZD5991] + CCN(CCO)CCCOc1ccc2c(Nc3cc(CC(=O)Nc4cccc(F)c4)[nH]n3)ncnc2c1 [AZD2811] (first compound max 1 µM, 7x7, partner max 1 µM)
RESULT: 0.0077

QUERY: State, in one line, measured Bliss excess of COc1nnc2ccc(N3CCC(c4ccc(OCCN5CCN(C)C(=O)[C@H]5C)cc4)CC3)nn12 [AZD5153] + Cc1c2c(nn1C)CSCc1cc(n(C)n1)CSc1cc(c3ccccc3c1)OCCCc1c(C(=O)O)n(C)c3c-2c(Cl)ccc13 [AZD5991] (first compound max 1 µM, 7x7, partner max 1 µM)
RESULT: -0.0093

QUERY: State, in one line, measured Bliss excess of C[C@@H](c1ccc2nccn2c1)n1nnc2ncc(-c3cnn(C)c3)nc21 [Savolitinib] + CN(CC[C@H](CSC1=CC=CC=C1)NC2=C(C=C(C=C2)S(=O)(=O)NC(=O)C3=CC=C(C=C3)N4CCC(CC4)[C@H](C5=CC=CC=C5C6=CC=C(C=C6)Cl)O)S(=O)(=O)C(F)(F)F)CCO [AZD4320] (first compound max 1 µM, 7x7, partner max 1 µM)
RESULT: -0.0802
